# Target of assay: T1, hIL-4Rα on cells (human, UniProt P24394 26-825)
# T1 sequence: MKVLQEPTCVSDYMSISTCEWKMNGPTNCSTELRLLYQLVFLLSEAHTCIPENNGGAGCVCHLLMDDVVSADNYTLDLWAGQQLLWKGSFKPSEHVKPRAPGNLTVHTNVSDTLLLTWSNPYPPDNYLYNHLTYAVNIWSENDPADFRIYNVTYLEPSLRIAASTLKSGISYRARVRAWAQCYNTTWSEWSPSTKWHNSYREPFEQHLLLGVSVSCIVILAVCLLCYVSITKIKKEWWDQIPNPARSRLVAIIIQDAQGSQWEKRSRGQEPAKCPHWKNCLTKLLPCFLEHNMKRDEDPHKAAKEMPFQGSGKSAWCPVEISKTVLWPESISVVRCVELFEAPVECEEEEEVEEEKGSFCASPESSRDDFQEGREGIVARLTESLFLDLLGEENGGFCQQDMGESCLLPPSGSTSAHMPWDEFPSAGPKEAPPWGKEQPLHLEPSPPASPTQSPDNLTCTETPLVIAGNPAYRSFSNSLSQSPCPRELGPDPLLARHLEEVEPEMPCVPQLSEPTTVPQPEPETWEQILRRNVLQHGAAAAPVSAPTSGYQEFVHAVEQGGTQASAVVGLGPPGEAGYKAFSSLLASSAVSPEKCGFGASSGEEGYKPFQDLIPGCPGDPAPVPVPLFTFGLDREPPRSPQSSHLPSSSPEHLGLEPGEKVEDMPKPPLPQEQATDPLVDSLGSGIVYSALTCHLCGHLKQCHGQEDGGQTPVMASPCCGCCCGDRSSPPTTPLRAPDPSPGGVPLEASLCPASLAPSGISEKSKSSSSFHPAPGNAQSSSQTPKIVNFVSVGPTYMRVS
# Assay overview: cell-based or functional assay
Please provide measured Relative Inhibition of IL-4 induced TF-1 Proliferation IC50 for the entries that follow.

-- ask Recorded Relative Inhibition of IL-4 induced TF-1 Proliferation IC50 for Construct 11 (mAb420) (antibody, IgG4, V domains shown, VH/VL only) VH: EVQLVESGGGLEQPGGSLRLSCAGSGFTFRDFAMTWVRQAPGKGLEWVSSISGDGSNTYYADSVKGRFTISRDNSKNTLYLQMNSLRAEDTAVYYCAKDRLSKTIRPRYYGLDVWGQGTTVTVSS VL: DIVMTQSPLSLPVTPGEPASISCRSSQSVLYSIGYNYVDWYLQKSGQSPQLLIYLGNKRASGVPDRFSGSGSGTDFTLKISRVEAEDVGFYYCMQSLQTPYTFGQGTKLEIK , please?
-- reply 0.455 relative to dupilumab

-- ask Recorded Relative Inhibition of IL-4 induced TF-1 Proliferation IC50 for Construct 12 (mAb421) (antibody, IgG4, V domains shown, VH/VL only) VH: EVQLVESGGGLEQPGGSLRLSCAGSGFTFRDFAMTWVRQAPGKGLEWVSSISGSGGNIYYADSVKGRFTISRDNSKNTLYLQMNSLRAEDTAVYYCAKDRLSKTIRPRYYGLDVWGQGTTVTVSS VL: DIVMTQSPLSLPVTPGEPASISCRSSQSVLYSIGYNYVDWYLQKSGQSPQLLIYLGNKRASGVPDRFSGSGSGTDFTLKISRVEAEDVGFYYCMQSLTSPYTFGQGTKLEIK , please?
-- reply 0.526 relative to dupilumab

-- ask Recorded Relative Inhibition of IL-4 induced TF-1 Proliferation IC50 for Construct 20 (mAb428) (antibody, IgG4, V domains shown, VH/VL only) VH: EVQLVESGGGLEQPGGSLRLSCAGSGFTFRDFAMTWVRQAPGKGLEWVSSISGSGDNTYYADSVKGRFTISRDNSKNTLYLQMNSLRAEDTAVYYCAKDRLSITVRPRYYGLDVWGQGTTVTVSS VL: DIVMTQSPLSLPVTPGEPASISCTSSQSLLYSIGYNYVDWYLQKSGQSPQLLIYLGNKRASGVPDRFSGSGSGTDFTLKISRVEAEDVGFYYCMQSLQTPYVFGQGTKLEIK , please?
-- reply 1.12 relative to dupilumab

-- ask Recorded Relative Inhibition of IL-4 induced TF-1 Proliferation IC50 for Construct 17 (mAb425) (antibody, IgG4, V domains shown, VH/VL only) VH: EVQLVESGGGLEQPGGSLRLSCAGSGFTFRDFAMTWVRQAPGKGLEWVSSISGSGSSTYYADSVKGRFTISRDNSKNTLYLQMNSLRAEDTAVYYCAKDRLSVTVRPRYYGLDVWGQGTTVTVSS VL: DIVMTQSPLSLPVTPGEPASISCTASQSLLYSIGYNYVDWYLQKSGQSPQLLIYLGSKRASGVPDRFSGSGSGTDFTLKISRVEAEDVGFYYCMQAYNSPYTFGQGTKLEIK , please?
-- reply 0.729 relative to dupilumab

Data origin, for the record: patent US20260193366A1
